testSystem: Caspase-7 (Homo sapiens) (UniProt P55210)
Sequence (P55210 whole entry D23A/D198A/D206A): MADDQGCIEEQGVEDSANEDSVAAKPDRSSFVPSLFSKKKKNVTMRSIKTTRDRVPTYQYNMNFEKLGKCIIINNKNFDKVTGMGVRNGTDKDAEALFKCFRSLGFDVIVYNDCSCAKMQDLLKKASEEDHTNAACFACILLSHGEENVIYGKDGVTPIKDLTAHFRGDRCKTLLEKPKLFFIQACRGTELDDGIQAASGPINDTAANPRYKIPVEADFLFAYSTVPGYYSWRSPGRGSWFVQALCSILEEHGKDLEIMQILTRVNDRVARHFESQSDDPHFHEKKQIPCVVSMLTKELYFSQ
protocolText: procaspase-7 activators, primary screen, counter-screen for procaspase-3 activator project, biochemical, absorbance, HTS, human (AID 463210)
setupConditions: recombinant procaspase-7, Ac-DEVD-pNA absorbance 405 nm; at 8.5 µM; D23A/D198A/D206A triple mutant, cannot self-cleave; scale: DMSO 0, 5 µM enzyme 100
Among all 330,000 compounds or so, about 300 (0.091%) were called active.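 The calls were made as follows: active = percent activation above the screen-wide mean plus 3 SD (cut at about 25% in these data); inactive = the rest.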 What follows is part of a selection rich in actives, with near analogues and random picks from the rest.
Labels: TRUE (active), FALSE (inactive)

compound=CCCc1c(C(=O)N/N=C(\C)CCc2ccc(OC)cc2)nnn1-c1nonc1N testsystem="Caspase-7 (Homo sapiens) (UniProt P55210)" class=FALSE
compound="COc1ccccc1N1N=C(c2cccs2)CC1c1ccccc1 (centres undefined)" testsystem="Caspase-7 (Homo sapiens) (UniProt P55210)" class=FALSE
compound="O=C(COc1ccccc1Cl)N1N=C(c2cccs2)CC1c1ccco1 (centres undefined)" testsystem="Caspase-7 (Homo sapiens) (UniProt P55210)" class=FALSE
compound=CCCCOC(=O)Cn1c(=O)n(CC(=O)OCCCC)c2cc(C)ccc21 testsystem="Caspase-7 (Homo sapiens) (UniProt P55210)" class=TRUE
